Assignment: determine reported s/n for the given binders.
biological target: T1, proprotein convertase subtilisin/kexin type 9 (PCSK9) (human, UniProt Q8NBP7 31-692); assay: phage spot ELISA
T1 construct: His-tagged full-length PCSK9 in TR-FRET and SPR, biotinylated in phage ELISA; secreted protein is autoprocessed (prodomain plus catalytic/CRD chain starting at S153); also called rec.PCSK9; His-PCSK9
T1 sequence (Q8NBP7 other isoform, or with tags, fused parts or gaps limits assumed): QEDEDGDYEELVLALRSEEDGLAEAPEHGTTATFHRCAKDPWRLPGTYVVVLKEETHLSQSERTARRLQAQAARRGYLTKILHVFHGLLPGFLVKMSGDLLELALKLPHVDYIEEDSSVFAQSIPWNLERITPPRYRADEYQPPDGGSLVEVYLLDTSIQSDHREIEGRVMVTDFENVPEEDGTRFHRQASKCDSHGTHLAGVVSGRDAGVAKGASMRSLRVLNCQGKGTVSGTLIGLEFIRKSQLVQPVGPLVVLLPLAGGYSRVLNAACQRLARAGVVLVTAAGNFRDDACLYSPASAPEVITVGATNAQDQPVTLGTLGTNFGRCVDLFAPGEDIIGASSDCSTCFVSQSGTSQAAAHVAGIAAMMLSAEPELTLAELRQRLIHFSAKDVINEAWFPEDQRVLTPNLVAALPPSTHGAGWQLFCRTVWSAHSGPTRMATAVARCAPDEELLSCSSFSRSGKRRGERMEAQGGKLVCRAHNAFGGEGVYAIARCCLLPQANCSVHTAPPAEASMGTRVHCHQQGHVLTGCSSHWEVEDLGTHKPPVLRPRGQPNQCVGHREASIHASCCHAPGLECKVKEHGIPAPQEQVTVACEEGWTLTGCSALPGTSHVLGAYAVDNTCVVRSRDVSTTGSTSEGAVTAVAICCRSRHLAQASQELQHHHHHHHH

Query :: Query: s/n; subject: SGTPEMPAML [SEQ ID NO 374]
Result :: 5.74

Query :: Query: s/n; subject: SGEHQFYSYRGVDVYR [SEQ ID NO 370]
Result :: 1.45

Query :: Query: s/n; subject: SGDTRSQLSH [SEQ ID NO 376]
Result :: 11.9

Query :: Query: s/n; subject: SGAGKLDLSG [SEQ ID NO 377]
Result :: 11.1

Query :: Query: s/n; subject: SGCWTYLRGGCSVT [SEQ ID NO 373]
Result :: 4.39

Query :: Query: s/n; subject: SGGCVKYRGSVSCQESKT [SEQ ID NO 369]
Result :: 3.32

Query :: Query: s/n; subject: SGSYRGAWSVFGGSTD [SEQ ID NO 372]
Result :: 5.15

Query :: Query: s/n; subject: SGNALWNHDRLT [SEQ ID NO 379]
Result :: 6.42

Query :: Query: s/n; subject: SGRNGSGYINRGIEIW [SEQ ID NO 380]
Result :: 3.85

Query :: Query: s/n; subject: SGGSIPWNLERITPPR [SEQ ID NO 382]
Result :: 5.32

Query :: Query: s/n; subject: SGHASKGMVLSG [SEQ ID NO 381]
Result :: 15.5

Query :: Query: s/n; subject: SGNCWSSLRGICENLG [SEQ ID NO 367]
Result :: 1.47

Query :: Query: s/n; subject: SGACLNHFVSGNMIRC [SEQ ID NO 371]
Result :: 5.19

Query :: Query: s/n; subject: SGMVYVDRGVRVFT [SEQ ID NO 368]
Result :: 8.5

Query :: Query: s/n; subject: SGLAPTVSDS [SEQ ID NO 375]
Result :: 1.23
